Experiment: NCI Yeast Anticancer Drug Screen. Data for the rad52 strain (AID 147);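 further: 0% = growth of vehicle-treated control cultures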
Details: S. cerevisiae rad52 mutant growth inhibition; at 100.0 µM; active compounds read high
This is part of a sample that, as a whole, favours compounds with a hit. Of some 79,000 tested, about 15% had one in any assay.
Attribute: growth inhibition
Output spec: scalar in %, unitless text.

Example cases with answers are listed next.
| molecule | growth inhibition, % |
| --- | --- |
| CC(C)CCC[C@@H](C)[C@H]1CC[C@H]2[C@@H]3CC[C@H]4C[C@H](N)CC[C@]4(C)[C@H]3CC[C@]12C | -6 |
| CCOc1ccc2nc3ccccc3c(N)c2c1 | 97 |

Inquiry: Entry OC(c1ccccc1)(c1ccccc1)c1nccc2ccccc12 : reported growth inhibition = ?
Reply text: 81

Inquiry: Which measured growth inhibition value corresponds to O=[N+]([O-])[O][Sn]([O][Sn]([O][N+](=O)[O-])([c]1ccccc1)[c]1ccccc1)([c]1ccccc1)[c]1ccccc1 ?
Reply text: 57

Inquiry: growth inhibition for CC(=O)O[C@H]1CC[C@@]2(C)C(=CC[C@@H]3C2CC[C@]2(C)C(=O)NC(=O)CC32)C1 (stereo partly drawn) ?
Reply text: -41

Inquiry: Which measured growth inhibition value corresponds to O=C1c2cccc3cccc(c23)C(=O)N1CCNCCN1C(=O)c2cccc3cccc(c23)C1=O ?
Reply text: 34

Inquiry: I am curious: what growth inhibition value has been reported for NC(CS)C(=O)NCCNc1ccc(NCCNC(=O)C(N)CS)c2c1C(=O)c1c(O)ccc(O)c1C2=O (stereo not drawn) ?
Reply text: 48

Inquiry: Which growth inhibition is listed for c1ccc2c(c1)N=C1CCCC3CCCC123 (stereo not drawn) ?
Reply text: 98
